- Tested on: MS2 coat protein
- measurement.protocol: apparent KD of MS2 coat protein; designed switch direction (-1 OFF switch, 1 ON switch): -1; higher = weaker reporter binding
- condition.label: input ligand: FMN 200 uM
parameter.measured: apparent KD of MS2 coat protein (nM)
# value in nM; strip the unit string

Consider the worked cases shown below.
primary.sequence	test.system	unit.string	observed.measurement
UGAGACUGAGGAUAUACUAGACUACAAAGUAGUCAGUGGGUACAUGAGGAUCACCCAUGUAGAAGGCAGCCUCG [Omei Repeat Sequence v1] (Eterna round: R97, puzzle: Exclusion 2)	MS2 coat protein	nM	289
UACAUGAGGAUCACCCAUGUUUUGUCGUGUAUGGUAUUUAUCUAGGAUAUCAUUUAAUUUAGUUAUGAGAAGGAGAAUAUUAAU [JMF's solution 85] (Eterna round: R96, puzzle: Exclusion NG 3)	MS2 coat protein	nM	31.3

For the next question, use this sequence.
Note to self: apparent KD of MS2 coat protein recorded for GCUAGGAGUGUGAGGAUAUGCAGUUCCUUGGAACUGCAGAAGGCACAUGAGGAUCACCCAUGUGAAGACCUAGC [Mat - Exclusion 4 - JL Mod - D4] (Eterna round: R97, puzzle: Brourd's mod of Exclusion 4) was 212

###

- Tested on: MS2 coat protein
- measurement.protocol: apparent KD of MS2 coat protein; higher = weaker reporter binding
- condition.label: Eterna round: R107; input ligand: theophylline 2 mM
Tick rule met if apparent KD of MS2 coat protein is 100 nM or greater. Tick rule not met if apparent KD of MS2 coat protein is less than 100 nM.

primary.sequence	test.system	classification
GGCGCGCGCCAACAUGAGGAUCACCCAUGUCGAGGACCGGUACGGCCGCCACUCGAACGAGUGAAGCGCGCGCGCGGGCGACCGC [Saa]	MS2 coat protein	rule not met
AAUUAAACAUCGGCCGCCACUUACUCAUGAGGUAACAACAUGAGGAUCACCCAUGUUUGAGGAUCAAGGACCGGGAUGUAAUAAU [AstrosSSTryB#2]	MS2 coat protein	rule not met
GGACUAACCAGAAGGAGCGAUACGCAGAAACUGCAAUUUCCUCUACACGAGGAUCACCCGUGUCAGGUAGGUCGCUGGUUAGUCG	MS2 coat protein	rule not met
GGCGUCGGGCGAAGGAGCGUGAAGACAUGAGGAUCACCCAUGUAGAGGCCCGGACAGGGUUCGCAGGUAGGUCGCGCGCGGUGCC [#1 Same State - Arginine B Attempt #7 (HarryS)]	MS2 coat protein	rule not met
AGUCUUAUAGGAAGGAGCGCAAUCAUCACAUGAGGAUCACCCAUGUCAAGGUGAGAGUCAUUGCAGGUAGGUCGCCUAACUAAGA [Same State - Arginine B (Freestyle 9)]	MS2 coat protein	rule met
GGGUACAUCGCGGCCGCCACUCAUGUAAAUACCUGAGGAUCACCCUGGUCGAUGGAGACAUCGAAGAGGACCGGGUGAUGUACCG	MS2 coat protein	rule met
UGUAUGUGAUCUGAUACCAGUCCAACUGGUAAAACCUGAGGAUCACCCUGGUAAAAUUGGGACCCUUGGCAGCAGAUCGCAUACU	MS2 coat protein	rule met
UAUAUAUAUCACUAACUGUUGUGGACGUCUCGAGGACCGGUACGGCCGCCACUCGGGCGGCCUCACAUGAGGAUCACCCAUGUCC [XTryp A #4]	MS2 coat protein	rule met
AGUAUUGGAAACAGUACUAGUGAUCCGGUCCGAGGACCGGUACGGCCGCCACUCGAUUUAAAUAAACAUGAGGAUCACCCAUGUA [Ex Tryptophan A 14]	MS2 coat protein	rule not met
CCUUACGUUGGGCAGCCAGUUCGAAGUGAUACCAGUCACAAAAGUGACCCUUGGCAGCACCGCACAUGAGGAUCACCCAUGUCUA [SSThA NP+V+V2 #8 Same Structure]	MS2 coat protein	rule not met

Please check the record UGUAUGUGAUCUGAUACCAGCUAAUAAGCUUGAGGAUCACCCAAGUGGAGCGGAAACGCAAGCCCUUGGCAGCAGAUCGCAUACU [Denovo 4 #StaticStem #AlternativeMS2] and state if its apparent KD of MS2 coat protein is at or above 100 nM.
rule not met

Textbook exercise: given the entry UCGCCCAGGAAGGAUUCCUGGGAUAUGGAAGGAGCGCUGAUGCCAGCAGGUAGGUCGCCAACGGACAUGAGGAUCACCCAUGUAC [Same State - Arginine A (Freestyle 8)] , state whether its apparent KD of MS2 coat protein is greater than or equal to 100 nM.
rule not met

Record AGUCACAUGAGGAUCACCCAUGUGCCAGAACGAGGACCGGUACGGCCGCCACUCGAGGCGUCCGUCGACAAUAAUGUGAACUGCA [theeternabot_sameState_MS2_Trp_A_48] ; criterion: apparent KD of MS2 coat protein no lower than 100 nM. Met?
rule not met

Is apparent KD of MS2 coat protein at least 100 nM? Consider UGAACAUGAGGAUCACCCAUGUAGAGGGAAGGAGCGUCGAAGAAGACAGGUAGGUCGCCCAGAAAGAAAUCCUCAUGGAUAAGAA [Same State Arginine A GF2]
rule met

Identify whether the reported apparent KD of MS2 coat protein of the following sequence is 100 nM or greater: UUCUUUAAGUCGGCCGCCACUGAAACAUGAGGAUCACCCAUGUAUAUUUGUGUAUAGGUGGAUUACAGGACCGGGACUAUAGUAA [JR_ExcTryptoB_Sub023]
rule not met

Identify whether the reported apparent KD of MS2 coat protein of the following sequence is 100 nM or greater: AUUGUGAAGUCGGCCGCCACUGGUUAGUUUAACCUCAUGUAACAUGAGGAUCACCCAUGUAAUGACAGGACCGGGACAAUAGUAA [JR_ExcTryptoB_Sub015]
rule met

Could you please find out whether GUUAUAGACGGAAGGAGCGCGACCACAUGAGGAUCACCCAUGUAUUGUGUUGGUAAUAGGUCGCAGGUAGGUCGCCGGUUAAUGA [#04 Same State - Arginine B] has apparent KD of MS2 coat protein that meets 100 nM or exceeds it?
rule not met

Given the entry GUGACUUACGGGCGCCAUUUGUAAUAGGAAGGAGCGGCGAAAUAGCCAGGUAGGUCGCCUAUACAUGAGGAUCACCCAUGUCACC [Esatbileor] , answer whether its apparent KD of MS2 coat protein meets or surpasses 100 nM.
rule met

Reported apparent KD of MS2 coat protein at or above 100 nM? UUCGUUUACGGAAGGAGCGACGGACAUCGGUGAACGACGCACAUGAGGAUCACCCAUGUACGUCAGGUAGGUCGCCGUUAAGAGU [Somama]
rule not met

Is the recorded value of apparent KD of MS2 coat protein equal to or greater than 100 nM for this sequence? AGACAUGAGGAUCACCCAUGUAGUACGGAUACCAGAUCCAGAUGUAUCCCUUGGCAGCUGUGGUACAGCGUUACAUCGCUCGUAG [Exclusion - Theophylline A (Freestyle 21)]
rule not met

Origin of measurements: the supplement of paper PMC9170038
